assay: Determination of the log P values by HPLC (formic acid method); type: physicochemical; details: reversed-phase column (C 18), acidic range (pH 3.4), 55° C.
For each of the compounds below, state its log P.
Just the number, please, no unit attached.

stdin: Which log P reading was recorded for the compound O=C(Nc1ccn(-c2cc(Cl)ccc2Cl)n1)c1ccccc1Cl ?
stdout: 3.36

stdin: Please answer likewise for CN(C(=O)c1ccccc1C(F)(F)F)c1ccn(-c2c(F)cccc2F)n1
stdout: 3.08

stdin: Please answer likewise for CCC(C)n1ncc(I)c1C(=O)Nc1ccn(-c2c(F)cccc2F)n1 (stereo not drawn)
stdout: 3.47

stdin: Please answer likewise for Cc1oncc1C(=O)Nc1ccn(-c2ncc(F)cc2F)n1
stdout: 1.37

stdin: Please answer likewise for O=C(Nc1cnn(-c2ncc(Cl)cc2Cl)n1)c1ccccc1I
stdout: 3.04

stdin: Please answer likewise for O=C(Nc1ccn(-c2ncccc2Cl)n1)c1ccccc1Br
stdout: 2.23

stdin: Please answer likewise for O=C(Nc1nn(-c2c(F)cccc2F)cc1Br)c1ccccc1C(F)(F)F
stdout: 2.77

stdin: Please answer likewise for O=C(Nc1cnn(-c2ncccc2Cl)n1)c1c(F)cccc1C(F)(F)F
stdout: 2.48

stdin: Please answer likewise for O=C(Nc1nn(-c2ccccc2Br)nc1Cl)c1cccnc1Cl
stdout: 2.46
